The measured values listed here are drawn from PubChem BioAssay (NCI).

- Tested on: KM12 colon
- Assay Overview: NCI tumour cell line growth inhibition, 48 h
Outcome Measure: TGI (µM)
Record the value in µM, omitting the unit from your answer.

In [3]: df
Out[3]:
                                   compound  outcome_measure  units_label  result_number
0  COc1ccc(NC(=O)c2sc3nc(C)c(C(O)c4ccccc4)cc3c2N)cc1 (centres undefined)              TGI           µM           23.5
1  C=C(C)[C@@H]1CC[C@]2(C)[C@H](CC[C@@H]3[C@H]4[C@H]5OC[C@@]4(CCC5(C)C)CC[C@]32C)[C@@]1(C)CCCN              TGI           µM           3.33

# input Requested read-out: TGI. Entry: O=[N+]([O-])c1cc(-[n+]2cc([O-])on2)ccc1F
# output 31.5

# input Requested read-out: TGI. Entry: COC(=O)CCC/C=C\C[C@H]1C=CC(=O)/C1=C/C[C@@H](O)C/C=C\CC(F)(F)F
# output 5.65

# input Requested read-out: TGI. Entry: Cn1c2ccccc2c(=NNc2ccccc2C(=O)O)c2ccccc21
# output 42.2

# input Requested read-out: TGI. Entry: Cc1cc(O)cc2c1O[C@@]1(C)CCC3[C@@]4(C)CC[C@H](O)C(C)(C)C4CC[C@@]3(C)[C@H]1C2 (some centres undefined)
# output 21.4

# input Requested read-out: TGI. Entry: CC(CO)C1=CC(C#CCOCc2ccccc2)N(C(=O)Oc2ccccc2)c2ccccc21 (centres undefined)
# output 82.9

* * *

- Tested on: HOP-62 NSCLC
- Assay Overview: NCI tumour cell line growth inhibition, 48 h
Outcome Measure: GI50

                                        mol    result
0  COC(=O)CCC/C=C\C[C@H]1C=CC(=O)/C1=C/C[C@@H](O)C/C=C\CC(F)(F)F   1890 nM
1  COc1cc(-n2cc(-c3ccc(Cl)cc3)[nH]c2=O)cc(OC)c1OC  30800 nM
2               NS(=O)(=O)c1ccc(CCN=C=S)cc1   3230 nM
3  Nc1ccc(/C=N/Nc2ccnc3c(N)cccc23)c2cccnc12   1810 nM
4  COC1=CC(c2ccc[nH]2)=N/C1=C\c1[nH]c(C)c(C(=O)CCCCC(=O)Nc2ccccc2)c1C   2980 nM

Continue with the compound presented below.
# input Requested read-out: GI50. Entry: N#Cc1ccnc(N2C(=O)CC[C@H]2C(=O)N(c2cncc(F)c2)[C@H](C(=O)NC2CC(F)(F)C2)c2ccccc2Cl)c1
# output > 100000 nM

* * *

- Tested on: UO-31 renal
- Assay Overview: NCI tumour cell line growth inhibition, 48 h
// reported TGI for each item listed

# annotated cases, reported TGI shown
>>> print(df.to_string())
                                   molecule  outcome_measure    result
0    COc1cc([N+](=O)[O-])ccc1NC1=CC(=O)CCC1              TGI  > 100 µM
1  C[C@@]12CCC(=O)C=C1CC[C@H]1C2=CC[C@]2(C)C1CC[C@@]2(C)O (stereo partly drawn)              TGI  > 100 µM
2             O=C1CC2(CCNCC2)C(=O)N1N1CCCC1              TGI  > 100 µM
3         CCCCCCCC[N+](C)(CCCCCCCC)CCCCCCCC              TGI   1.62 µM
4  Cc1cc(Cl)cc2c1NC(=O)C2(O)C(C)C(=O)c1ccc(Cl)cc1 (stereo not drawn)              TGI  > 100 µM

# input Requested read-out: TGI. Entry: C=C1c2nc3ccccc3n2C=C(c2ccccc2)N1c1ccccc1
# output > 100 µM

# input Requested read-out: TGI. Entry: Cc1ccc(C)c(-c2csc(Nc3ccc(C)c(C)c3)n2)c1
# output > 100 µM

# input Requested read-out: TGI. Entry: CCOC(=O)c1sc(Nc2ccc(Cl)cc2)nc1C
# output 2.5 µM
